Collected log10 IC50 values appear next to each entry.
SYSTEM_UNDER_TEST: recombinant CETP (rCETP) (Homo sapiens)
Sequence (P11597 18-493): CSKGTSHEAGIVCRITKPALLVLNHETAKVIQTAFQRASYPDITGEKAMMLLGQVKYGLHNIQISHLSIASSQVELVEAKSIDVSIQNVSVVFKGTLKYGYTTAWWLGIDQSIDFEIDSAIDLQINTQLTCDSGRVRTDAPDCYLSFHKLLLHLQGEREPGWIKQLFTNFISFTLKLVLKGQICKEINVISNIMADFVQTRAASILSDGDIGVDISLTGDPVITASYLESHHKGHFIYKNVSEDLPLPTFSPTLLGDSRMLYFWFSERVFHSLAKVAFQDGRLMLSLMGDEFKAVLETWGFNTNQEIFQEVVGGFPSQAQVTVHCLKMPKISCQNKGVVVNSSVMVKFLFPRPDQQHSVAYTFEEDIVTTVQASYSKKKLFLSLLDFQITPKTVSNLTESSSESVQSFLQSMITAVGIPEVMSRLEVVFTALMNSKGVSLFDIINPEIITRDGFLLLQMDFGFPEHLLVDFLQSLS
EXPERIMENTAL_PROTOCOL: RTA assay using recombinant CETP (2% RTA)
Format: biochemical
REPORTED_CONDITIONS: RTA assay in 2% human serum; read-out: IC50
Counter-ions that a name gives are not always drawn.
Please be aware that the numbers have been log10-transformed from IC50 in nM.

Illustrative cases are given below, each with its answer.
| MOLECULE | SYSTEM_UNDER_TEST | VALUE_KIND | MEASURED_NUMBER |
| --- | --- | --- | --- |
| COc1cc(F)c(-c2ccc(C(=O)O)cc2C)cc1-c1cnc(N2CC(OC)C2)nc1CN1C(=O)O[C@H](c2cc(C(F)(F)F)cc(C(F)(F)F)c2)[C@@H]1C | recombinant CETP (rCETP) (Homo sapiens) | log10 IC50 | 1.04 |
| COc1ccc([C@H]2CC[C@H](C(=O)OC)CC2)cc1-c1cnc(N2CCC2)nc1CN1C(=O)O[C@H](c2cc(C(F)(F)F)cc(C(F)(F)F)c2)[C@@H]1C | recombinant CETP (rCETP) (Homo sapiens) | log10 IC50 | 1.78 |
| COC(=O)CC(C)(C)c1ccc(OC)c(-c2ccc(N3CCC3)nc2CN2C(=O)O[C@H](c3ccc(F)c(F)c3)[C@@H]2C)c1 | recombinant CETP (rCETP) (Homo sapiens) | log10 IC50 | 2.36 |
| COc1ccc(CCc2n(C)cc[n+]2C)cc1-c1ccc(N2CCC2)nc1CN1C(=O)O[C@H](c2cc(C(F)(F)F)cc(C(F)(F)F)c2)[C@@H]1C [Example 269, formate] | recombinant CETP (rCETP) (Homo sapiens) | log10 IC50 | 2.24 |
| CCOC(=O)[C@H]1C[C@@H]1c1ccc(OC)c(-c2ccc(N3CCC3)nc2CN2C(=O)O[C@H](c3cc(F)cc(F)c3)[C@@H]2C)c1 | recombinant CETP (rCETP) (Homo sapiens) | log10 IC50 | 2.26 |

In the following, a different molecule is considered.
Q: Write down the reported log10 IC50 of CCOC(=O)C[C@@H]1CCc2cc(OC)c(-c3ccc(N4CCC4)nc3CN3C(=O)O[C@H](c4cccc(C)c4)[C@@H]3C)cc21 , test system: recombinant CETP (rCETP) (Homo sapiens).
A: 2.31
